Data origin, for the record: BindingDB's records for PubMed 3010074

Assay system Adenosine receptor A2a (Rattus norvegicus, UniProt P30543); read-out recorded as Ki.

Nc1nccc2c1SCN2[C@@H]1O[C@H](CO)[C@@H](O)[C@H]1O: > 10 µM
CNc1ncnc2c1ncn2[C@H]1C[C@H](O)[C@@H](CO)O1: > 10 µM

# input for lookup
Tell me reported Ki for "Nc1nccc2c1ncn2[C@@H]1O[C@H](CO)[C@@H](O)[C@H]1O" , tested with Adenosine receptor A2a (Rattus norvegicus, UniProt P30543). > 10 µM
